Every entry's value here was drawn from the METLIN SMRT retention time set (Domingo-Almenara et al. 2019).

- METHOD_DESCRIPTION: gradient 5% acetonitrile 3 min, to 50% in 2 min, to 85% in 15 min, held 3 min, 100 µL/min
- CONDITION: column: Zorbax Extend-C18 2.1 x 50 mm; eluents: water / acetonitrile, 0.1% formic acid
READOUT_NAME: RP-LC retention time (s)

Example entries and their recorded answers appear below.
Q: Can you look up the measured RP-LC retention time of CCn1nc(C)cc1C(=O)N1CCNC(=O)C1(C)C for me?
A: 568

Q: Can you look up the measured RP-LC retention time of CCNC(=O)c1c(-c2cccnc2)noc1C for me?
A: 583

a = CNC(=O)c1cnc(-c2ccc(Cl)cc2)n(CC(=O)N2CCc3ccccc32)c1=O
b = NC(=O)C1CCc2sc(C(=O)N3CCCCCC3)cc2C1 (stereo not given)
Q: Short answer wanted: higher RP-LC retention time, a or b ? Write down the label of the entry you select.
A: a

----------
- METHOD_DESCRIPTION: gradient 5% acetonitrile 3 min, to 50% in 2 min, to 85% in 15 min, held 3 min, 100 µL/min
- CONDITION: column: Zorbax Extend-C18 2.1 x 50 mm; eluents: water / acetonitrile, 0.1% formic acid
READOUT_NAME: RP-LC retention time (s)

Q: Can you look up the measured RP-LC retention time of COc1ccc(-c2nc(C)cc3nn(CC(=O)Nc4cc(C)cc(C)c4)c(=O)n23)cc1 for me?
A: 906

Q: Can you look up the measured RP-LC retention time of CCc1nnc(-c2ccc(NS(=O)(=O)c3cccs3)cc2)o1 for me?
A: 772

Q: Can you look up the measured RP-LC retention time of COc1ccc(NS(=O)(=O)c2ccc3c(c2)C(=O)N(C)c2ncccc2O3)cc1Cl for me?
A: 918

Q: Can you look up the measured RP-LC retention time of CCC1(C(=O)NCCCN2CCc3ccccc3C2)CCCCC(=O)N1 (stereo not given) for me?
A: 582

Q: Can you look up the measured RP-LC retention time of CC(C)NC(=O)C1CCCN(c2nc3ncn(CC(=O)Nc4ccc(C(C)C)cc4)c(=O)c3s2)C1 (stereo not given) for me?
A: 785

----------
- METHOD_DESCRIPTION: gradient 5% acetonitrile 3 min, to 50% in 2 min, to 85% in 15 min, held 3 min, 100 µL/min
- CONDITION: column: Zorbax Extend-C18 2.1 x 50 mm; eluents: water / acetonitrile, 0.1% formic acid
READOUT_NAME: RP-LC retention time (s)

Example entries and their recorded answers appear below.
Q: Can you look up the measured RP-LC retention time of Cc1cc(-c2nnc(-c3ccco3)o2)c(C)n1CC(=O)Nc1cccc(Cl)c1 for me?
A: 920

Q: Can you look up the measured RP-LC retention time of COC(=O)c1c(C)c(C(=O)C(C)N(CC2CCCCC2)C(=O)c2ccccc2Cl)c(C)n1C (centres undefined) for me?
A: 1240

Q: Can you look up the measured RP-LC retention time of CCOC(=O)N1CCN(S(=O)(=O)c2cn(C)c(=O)n(C)c2=O)CC1 for me?
A: 621

Q: Can you look up the measured RP-LC retention time of CC1CCN(CC2CCN(S(=O)(=O)c3ccccc3Cl)CC2)CC1 for me?
A: 664

Q: Can you look up the measured RP-LC retention time of COc1ccccc1CNC(=O)CCc1csc(NC(=O)c2ccc(F)cc2)n1 for me?
A: 792

Q: Can you look up the measured RP-LC retention time of COc1ccc(OC)c(NC2=NS(=O)(=O)C(c3ccc(F)cc3)=C2C)c1 for me?
A: 880

Q: Can you look up the measured RP-LC retention time of Cc1cccc(NC(=O)Cn2c(=O)n3nc(CCn4nc(C)cc4C)nc3c3ccccc32)c1 for me?
A: 775

Q: Can you look up the measured RP-LC retention time of Cc1cc(Nc2cc(N3CCN(C)CC3)nc(/C=C/c3ccccc3)n2)n[nH]1 for me?
A: 625

1 = CCOc1ccc(-c2nc(Cc3noc(-c4ccccn4)n3)c(C)o2)cc1
2 = Cc1ccc(Cl)cc1NC(=O)N1CCC(c2nc3ccncc3n2C(C)C)C1 (centres undefined)
Q: Short answer wanted: higher RP-LC retention time, 1 or 2 ? Write down the label of the entry you select.
A: 1

P = C=CCn1c(=O)c(=O)n(Cc2ccc(C(=O)N3CCN(c4ccccn4)CC3)cc2)c2ccccc21
Q = Cc1ccc(NC(=O)C2CCCN(c3nc4c(s3)c(C)nn4-c3cccc(F)c3)C2)c(C)c1 (centres undefined)
Q: Short answer wanted: higher RP-LC retention time, P or Q ? Write down the label of the entry you select.
A: Q
(Q: 1280 s, P: 626 s)

----------
- METHOD_DESCRIPTION: gradient 5% acetonitrile 3 min, to 50% in 2 min, to 85% in 15 min, held 3 min, 100 µL/min
- CONDITION: column: Zorbax Extend-C18 2.1 x 50 mm; eluents: water / acetonitrile, 0.1% formic acid
READOUT_NAME: RP-LC retention time (s)

Q: Can you look up the measured RP-LC retention time of COc1ccc(-c2nnc(SCc3cc(=O)n4ccsc4n3)o2)cc1OC for me?
A: 700

Q: Can you look up the measured RP-LC retention time of Cc1sc2ccn(C)c(=O)c2c1C(=O)N1CCCCCC1 for me?
A: 705

Q: Can you look up the measured RP-LC retention time of O=C(Cn1c(=O)nc(-c2ccccc2)c2ccccc21)N1CCN(c2ccccn2)CC1 for me?
A: 609

Q: Can you look up the measured RP-LC retention time of CC(C)Oc1ccc(CN2C(=O)C3(CCOCC3)CC2c2nnnn2C(C)(C)C)cc1 (stereo not given) for me?
A: 875

Q: Can you look up the measured RP-LC retention time of O=C(NC1CC1)c1c2c(nc3ccccc13)CCCC2 for me?
A: 585

Q: Can you look up the measured RP-LC retention time of CSc1nsc(SCC(=O)Nc2nc(-c3ccccc3)cs2)n1 for me?
A: 1070

Q: Can you look up the measured RP-LC retention time of COc1ccc(-c2noc3ncnc(N4CCC(C(=O)N5CCC(C(N)=O)CC5)CC4)c23)cc1 for me?
A: 656

Q: Can you look up the measured RP-LC retention time of Cc1cc(C(=O)NCCN2CCCCCC2)c2c(=O)n(C)c(=O)n(C)c2n1 for me?
A: 592

P = CCOc1ccccc1CN1C[C@@H]2C(=O)N(Cc3ccc4c(c3)OCO4)C(=O)[C@@H]2C1
Q = CCC(C)NC(=O)C1CCCN(c2nccnc2Sc2ccc(C)cc2)C1 (stereo not given)
Q: Hey, between P and Q which has a smaller measured RP-LC retention time? Write down the label of the entry you select.
A: P
(P: 727 s, Q: 1320 s)

a = O=C(Nc1ccccc1Cl)c1cnc(-c2ccc(F)cc2)nc1-c1ccncc1
b = CCN(C(=O)c1nc(N2CCOCC2)c2cnn(C)c2n1)c1ccccc1
Q: Hey, between a and b which has a smaller measured RP-LC retention time? Write down the label of the entry you select.
A: b

I = CN1C(=O)C2CCCCN2c2ccc(C(=O)NCCN3CCCCC3)cc21 (stereo not given)
II = CCCCN1C(=O)C(C)(C(=O)NCc2ccccc2)Oc2cccnc21 (stereo not given)
Q: Short answer wanted: higher RP-LC retention time, I or II ? Write down the label of the entry you select.
A: II

----------
- METHOD_DESCRIPTION: gradient 5% acetonitrile 3 min, to 50% in 2 min, to 85% in 15 min, held 3 min, 100 µL/min
- CONDITION: column: Zorbax Extend-C18 2.1 x 50 mm; eluents: water / acetonitrile, 0.1% formic acid
READOUT_NAME: RP-LC retention time (s)

Example entries and their recorded answers appear below.
Q: Can you look up the measured RP-LC retention time of CC1(C(=O)NCc2ccc(F)cc2)CCN(S(=O)(=O)c2ccc(Br)cc2)CC1 for me?
A: 1000

Q: Can you look up the measured RP-LC retention time of CCCn1cc(CCNS(=O)(=O)c2ccccc2C(F)(F)F)c2cccnc21 for me?
A: 904

Q: Can you look up the measured RP-LC retention time of Cc1ccc(S(=O)(=O)NCCc2cn(CC(C)C)c3ncccc23)cc1Cl for me?
A: 1070

Q: Can you look up the measured RP-LC retention time of CCN1C(=O)c2cc(S(=O)(=O)Nc3ccccc3)ccc2Oc2cccnc21 for me?
A: 959

a = COc1ccc(-c2nnc(-c3cccc(S(=O)(=O)N4CCCC4)c3)o2)cc1
b = Cc1n[nH]c(C)c1S(=O)(=O)N1CCC(c2nnc(-c3ccco3)s2)CC1
Q: Hey, between a and b which has a smaller measured RP-LC retention time? Write down the label of the entry you select.
A: b
(b: 660 s, a: 963 s)

A = CN(C(=O)c1cc2c(=O)oc3ccccc3c2n1C)c1cccc(Cl)c1
B = CSC[C@H]1O[C@@H](n2cnc3c(N)ncnc32)[C@@H](O)[C@H]1O
Q: Short answer wanted: higher RP-LC retention time, A or B ? Write down the label of the entry you select.
A: A
(A: 933 s, B: 575 s)
